# procedureDetails: Displacement of fluorescein labeled N6-(6-amino)hexyl-ATP-5-FAM from HSP70 by fluorescence polarization assay
observedProperty: pIC50
// pIC50 here means minus log10 of the molar concentration (mol/L)

Item: Nc1ncnc2c1ncn2[C@@H]1O[C@H](COP(=O)(O)OP(=O)(O)OP(=O)(O)O)[C@@H](O)[C@H]1O [ADENOSINE TRIPHOSPHATE] | pIC50: 6.30

Item: Nc1ncnc2c1nc(NCc1ccccc1)n2[C@@H]1O[C@H](CO)[C@@H](O)[C@H]1O | pIC50: 5.00

Item: Nc1ncnc2c1nc(NCc1ccc(Cl)c(Cl)c1)n2[C@@H]1O[C@H](CO)[C@@H](O)[C@H]1O | pIC50: 5.04

Item: CNc1nc2c(N)ncnc2n1[C@@H]1O[C@H](CO)[C@@H](O)[C@H]1O | pIC50: 4.77
